All values here come from paper PMC6857051.

- measured_target: human αβγ-ENaC (Homo sapiens, UniProt P37088+P51168+P51170)
- Construct: expressed in transfected cells; host or cells: Xenopus laevis oocytes injected with cRNA (pGEM HE vector)
- Sequence (P37088 whole entry): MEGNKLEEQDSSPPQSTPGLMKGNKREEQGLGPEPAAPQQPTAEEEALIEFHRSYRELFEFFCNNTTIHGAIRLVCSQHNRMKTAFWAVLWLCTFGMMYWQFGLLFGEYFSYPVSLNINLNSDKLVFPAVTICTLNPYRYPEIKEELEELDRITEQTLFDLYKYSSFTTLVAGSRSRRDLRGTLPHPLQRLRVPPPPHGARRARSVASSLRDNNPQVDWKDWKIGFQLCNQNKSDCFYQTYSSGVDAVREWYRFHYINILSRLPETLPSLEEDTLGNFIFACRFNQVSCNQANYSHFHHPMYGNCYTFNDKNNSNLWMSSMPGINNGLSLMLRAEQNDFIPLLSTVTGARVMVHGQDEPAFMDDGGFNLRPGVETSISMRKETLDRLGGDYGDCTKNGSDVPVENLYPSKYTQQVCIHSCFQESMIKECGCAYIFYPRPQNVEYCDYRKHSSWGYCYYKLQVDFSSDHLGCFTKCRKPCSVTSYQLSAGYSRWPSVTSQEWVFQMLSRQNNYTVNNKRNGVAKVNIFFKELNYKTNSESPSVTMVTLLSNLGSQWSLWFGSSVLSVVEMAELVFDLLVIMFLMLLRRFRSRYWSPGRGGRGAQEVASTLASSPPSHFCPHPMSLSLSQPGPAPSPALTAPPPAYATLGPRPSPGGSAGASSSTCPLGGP
- Sequence (P51168 whole entry): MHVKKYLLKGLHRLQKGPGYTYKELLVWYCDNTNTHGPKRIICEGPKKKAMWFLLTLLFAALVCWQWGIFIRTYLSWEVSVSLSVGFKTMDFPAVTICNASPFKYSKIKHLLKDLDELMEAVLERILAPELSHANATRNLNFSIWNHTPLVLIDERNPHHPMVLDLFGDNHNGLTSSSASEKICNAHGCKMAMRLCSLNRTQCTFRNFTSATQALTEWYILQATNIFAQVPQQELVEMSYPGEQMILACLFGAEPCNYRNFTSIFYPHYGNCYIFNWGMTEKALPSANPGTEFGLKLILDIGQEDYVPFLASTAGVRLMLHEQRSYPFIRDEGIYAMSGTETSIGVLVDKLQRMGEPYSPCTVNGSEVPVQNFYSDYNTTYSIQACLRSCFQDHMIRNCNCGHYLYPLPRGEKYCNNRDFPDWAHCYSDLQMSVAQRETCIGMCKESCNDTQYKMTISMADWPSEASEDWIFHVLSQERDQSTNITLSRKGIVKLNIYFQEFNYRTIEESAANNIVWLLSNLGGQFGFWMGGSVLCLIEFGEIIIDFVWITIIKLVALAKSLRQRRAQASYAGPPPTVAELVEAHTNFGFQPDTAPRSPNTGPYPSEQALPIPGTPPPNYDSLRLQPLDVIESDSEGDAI
- Sequence (P51170 whole entry): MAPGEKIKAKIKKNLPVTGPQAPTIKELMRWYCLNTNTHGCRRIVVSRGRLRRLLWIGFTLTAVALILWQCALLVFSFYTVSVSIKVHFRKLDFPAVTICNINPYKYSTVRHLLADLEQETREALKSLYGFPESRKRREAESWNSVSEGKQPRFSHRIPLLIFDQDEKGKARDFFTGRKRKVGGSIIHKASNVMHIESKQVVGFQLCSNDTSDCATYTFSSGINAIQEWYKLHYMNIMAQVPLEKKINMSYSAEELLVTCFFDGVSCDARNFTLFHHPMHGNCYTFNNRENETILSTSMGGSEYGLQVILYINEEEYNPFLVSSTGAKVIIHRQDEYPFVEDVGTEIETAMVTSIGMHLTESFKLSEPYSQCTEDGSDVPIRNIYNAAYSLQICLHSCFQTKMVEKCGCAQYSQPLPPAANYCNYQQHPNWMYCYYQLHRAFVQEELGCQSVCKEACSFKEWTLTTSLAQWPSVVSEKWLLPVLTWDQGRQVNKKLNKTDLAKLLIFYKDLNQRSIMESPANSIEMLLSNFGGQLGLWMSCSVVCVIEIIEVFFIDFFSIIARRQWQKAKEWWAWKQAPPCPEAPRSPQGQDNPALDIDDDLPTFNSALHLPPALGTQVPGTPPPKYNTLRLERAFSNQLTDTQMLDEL
- protocol_notes: Two-electrode voltage clamp of αβγ-ENaC expressed in Xenopus oocytes
- Assay type: cell-based
- test_context: oocytes, current at -100 mV; n=4, Chi^2 = 0.44, R^2 = 0.993; read-out: IC50 on αβγ-ENaC channels (Hill equation)
measured_property: IC50

// query I'd like to know its IC50. The substance in question is Ac-LRGTLPHPLQRLR-NH2 [α-13 peptide]
// result 0.1 µM
